Target: recombinant soluble glutathione-S-transferase/ecto-5′-nucleotidase fusion protein (rat enzyme) (Rattus norvegicus, UniProt P21588)
Construct: Catalytically active recombinant soluble glutathione-S-transferase/ecto-5′-nucleotidase fusion protein; Dr. Herbert Zimmermann, University of Frankfurt (gift); host or cells: insect cells, baculovirus system
Sequence (P21588 29-551 limits assumed): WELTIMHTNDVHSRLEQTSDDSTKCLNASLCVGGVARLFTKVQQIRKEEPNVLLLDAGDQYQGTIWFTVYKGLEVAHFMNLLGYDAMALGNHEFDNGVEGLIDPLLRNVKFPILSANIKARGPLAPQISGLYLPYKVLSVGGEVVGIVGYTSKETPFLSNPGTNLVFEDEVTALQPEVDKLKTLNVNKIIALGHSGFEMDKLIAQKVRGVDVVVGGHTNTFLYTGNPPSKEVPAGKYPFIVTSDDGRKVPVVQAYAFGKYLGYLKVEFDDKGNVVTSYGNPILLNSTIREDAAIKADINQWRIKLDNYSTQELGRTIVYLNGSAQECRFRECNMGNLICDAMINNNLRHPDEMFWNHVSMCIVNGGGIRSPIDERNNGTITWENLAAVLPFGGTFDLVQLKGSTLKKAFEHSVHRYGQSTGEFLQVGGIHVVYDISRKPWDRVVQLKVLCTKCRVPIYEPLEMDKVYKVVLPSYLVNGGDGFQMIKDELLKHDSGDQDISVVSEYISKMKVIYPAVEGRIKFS
Test: Ecto-5′-nucleotidase substrate specificity assay by capillary electrophoresis
Type: biochemical
Settings: 500 μM nucleoside 5′-monophosphate, 37° C., 20 min; relative to AMP set at 100%; n = 3
measured-attribute: Dephosphorylation (%) by ecto-5′-nucleotidase in comparison with AMP

Example cases with answers are listed next.
Query: Which Dephosphorylation (%) by ecto-5′-nucleotidase in comparison with AMP value belongs to Nc1nc(SCCc2ccccc2)nc2c1ncn2[C@@H]1O[C@H](COP(=O)(O)O)[C@@H](O)[C@H]1O ?
Response: 0

Query: Which Dephosphorylation (%) by ecto-5′-nucleotidase in comparison with AMP value belongs to Nc1ncnc2c1ncn2[C@@H]1O[C@H](COP(=O)(O)O)[C@@H](O)[C@H]1O [AMP, adenosine monophosphate, reference compound] ?
Response: 100

Query: Which Dephosphorylation (%) by ecto-5′-nucleotidase in comparison with AMP value belongs to Nc1nc(SCC2CCCCC2)nc2c1ncn2[C@@H]1O[C@H](COP(=O)(O)O)[C@@H](O)[C@H]1O ?
Response: 70.5

Query: Which Dephosphorylation (%) by ecto-5′-nucleotidase in comparison with AMP value belongs to CCCCCCSc1nc(N)c2ncn([C@@H]3O[C@H](COP(=O)(O)O)[C@@H](O)[C@H]3O)c2n1 [Compound 6, 2-(Hexylthio)adenosine-5′-monophosphate] ?
Response: 84.2

Query: Which Dephosphorylation (%) by ecto-5′-nucleotidase in comparison with AMP value belongs to C=CCSc1nc(N)c2ncn([C@@H]3O[C@H](COP(=O)(O)O)[C@@H](O)[C@H]3O)c2n1 [Compound 5, 2-(Allylthio)adenosine-5′-monophosphate] ?
Response: 0

I: CCCSc1nc(N)c2ncn([C@@H]3O[C@H](COP(=O)(O)O)[C@@H](O)[C@H]3O)c2n1 [Compound 4, 2-(Propylthio)adenosine-5′-monophosphate]
II: Nc1nc(SCc2ccccc2)nc2c1ncn2[C@@H]1O[C@H](COP(=O)(O)O)[C@@H](O)[C@H]1O [Compound 8, 2-(Benzylthio)adenosine-5′-monophosphate]
Query: Lab note: check whether I or II shows the higher recorded Dephosphorylation (%) by ecto-5′-nucleotidase in comparison with AMP. Pick one; state its label.
Response: I
(I: 46.8%, II: 0%)

* * *

Target: A3 receptor human recombinant receptors expressed in CHO cells (Homo sapiens)
Sequence (P0DMS8 1-318): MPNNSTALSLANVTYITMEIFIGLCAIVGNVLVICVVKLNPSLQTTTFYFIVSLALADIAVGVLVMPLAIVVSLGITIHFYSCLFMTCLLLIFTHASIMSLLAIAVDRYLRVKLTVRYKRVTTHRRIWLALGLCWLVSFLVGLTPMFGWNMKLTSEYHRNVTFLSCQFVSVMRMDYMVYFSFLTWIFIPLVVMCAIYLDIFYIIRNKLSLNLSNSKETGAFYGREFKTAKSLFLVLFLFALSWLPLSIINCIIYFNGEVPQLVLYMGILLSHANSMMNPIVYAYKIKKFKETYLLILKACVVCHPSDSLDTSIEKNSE
Test: A3 adenosine receptor radioligand binding vs. [3H]PSB-11
Conditions: human recombinant receptors in CHO cells vs. [3H]PSB-11 (antagonist radioligand; agonist affinities underestimated)
measured-attribute: Ki (µM)
Numeric only. Scale: µM

Query: Which Ki value belongs to C#CCSc1nc(N)c2ncn([C@@H]3O[C@H](COP(=O)(O)O)[C@@H](O)[C@H]3O)c2n1 [Example No. 10] ?
Response: 10.4
